- Tested on: RXF 393
- assayDetails: NCI tumour cell line growth inhibition, 48 h
Activity calls are given as the source filed them. No stated cut-off is given here; in the data, active = GI50 up to about 1.1 µM and inactive = higher.
Quick list: GI50 per entry.

Answered examples (8):
{"columns": ["compound", "targetOrTestSystem", "measuredAttribute", "valueMeasured"],
 "data": [
  ["O=[N+]([O-])c1ccc(C2ON=C(c3ccccc3)N2C23CC4CC(CC(C4)C2)C3)cc1 (configuration not stated)", "RXF 393", "GI50", "> 10 µM (inactive)"],
  ["CCOc1cc(/C=N/c2nc3cc4sc(/N=C/c5ccc(O)c(OCC)c5)nc4cc3s2)ccc1O", "RXF 393", "GI50", "> 100 µM (inactive)"],
  ["CC(C)(C)NNC(=O)CCn1[nH]c(=O)c(Cl)c(Cl)c1=O", "RXF 393", "GI50", "> 100 µM (inactive)"],
  ["COc1c2cc(C(C)(C)C)cc1Cc1cccc(c1O)Cc1cc(C(C)(C)C)cc(c1OC)Cc1cccc(c1O)Cc1cc(C(C)(C)C)cc(c1OC)Cc1cccc(c1O)C2", "RXF 393", "GI50", "> 100 µM (inactive)"],
  ["O=C(O)c1ccccc1-c1ccccc1C(=O)Nc1ccc2c(c1)nc(O)c1ccccc12", "RXF 393", "GI50", "> 100 µM (inactive)"],
  ["COc1ccc(-n2c(N)c(C#N)c(C#N)c2-c2cccc([N+](=O)[O-])c2)cc1", "RXF 393", "GI50", "2.55 µM (inactive)"],
  ["N=C(N)/N=C(\\N)Nc1ccc(C(=O)O)cc1", "RXF 393", "GI50", "> 100 µM (inactive)"],
  ["CCN1CCN(c2nc3ccccc3c3c2CCOc2ccccc2-3)CC1", "RXF 393", "GI50", "25.2 µM (inactive)"]
]}

Incoming: So what GI50 did COc1ccc(/C(=N/O)c2ccccc2C2=Nc3ccccc3C(NCc3ccccc3)O2)cc1C (configuration not stated) get with RXF 393?
Outgoing: 47.3 µM (inactive)

Incoming: Now give it for CC(C)=CC[C@]12CCN(C)[C@H]1N(S(=O)(=O)c1ccccc1)c1ccccc12 too.
Outgoing: > 38.3 µM (inactive)

Incoming: Proceed to CN(C)CCNc1ccc2nnn3c4ccc(O)cc4c(=O)c1c23
Outgoing: 1.68 µM (inactive)

Incoming: Consider next the compound C#C[C@]1(O)CC[C@H]2[C@@H]3CCc4cc(OC(=O)c5cccc6cc7ccccc7nc56)ccc4[C@H]3CC[C@@]21C in the same way.
Outgoing: 44.4 µM (inactive)

Incoming: // next record CC(NC(=O)N(C)C)NC(=O)N(C)C
Outgoing: > 10 µM (inactive)

Incoming: Next entry: O=C1SC(c2ccccc2)(c2ccccc2)c2ccccc21
Outgoing: 44.1 µM (inactive)

Incoming: Next: COC(=O)/C(=C1\OC(=O)C(c2ccc(Cl)cc2)=C1O)c1ccc(Cl)cc1
Outgoing: 21.5 µM (inactive)

Incoming: Moving on to COC(=O)/C=C1/OC(c2ccc(OC)cc2)=C(Cl)C1=O
Outgoing: 10 µM (inactive)

Incoming: Quick one: Cc1ccc([N+](=O)[O-])cc1S(=O)(=O)Nc1ccc(C2=NN(S(=O)(=O)c3cc([N+](=O)[O-])ccc3C)C(c3ccccc3)C2)cc1 (configuration not stated)
Outgoing: 36.6 µM (inactive)

Incoming: Moving on to the next compound: COC(=O)N/N=C(\C)C(CN(C)C)C(c1ccccc1)c1c(O)c2ccccc2oc1=O (configuration not stated)
Outgoing: > 100 µM (inactive)

----------
- System: Malme-3M
- assayDetails: NCI tumour cell line growth inhibition, 48 h
Activity calls are given as the source filed them. No stated cut-off is given here; in the data, active = GI50 up to about 1.1 µM and inactive = higher.
Field 'call' accepts active, inactive

Consider the worked cases shown below.
{"columns": ["smilesRepr", "answerLabel"],
 "data": [
  ["Cc1c([N+](=O)[O-])ccc2c(NCCCN(C)C)ccnc12", "inactive"],
  ["COc1cc(N(CCC#N)CCC#N)ccc1/C=N\\NC(=O)c1ccc(C)cc1", "inactive"],
  ["CCCNC1=C2C[C@@H](C)C[C@@H](OC)[C@@H](OC(=O)CCCN)[C@H](C)/C=C(\\C)[C@@H](OC(N)=O)[C@H](OC)/C=C\\C=C(/C)C(=O)NC(=CC1=O)C2=O", "inactive"],
  ["COc1cc2c(c(OC)c1OC)-c1ccc(SC)c(=O)cc1[C@@H](NC(=O)c1ccc(OC(C)=O)cc1)CC2", "active"]
]}

Incoming: Outcome logged for CCOC(=O)C(=O)Nc1nc2c(OCC)cccc2s1 in this assay:
Outgoing: inactive

----------
- System: NCI-H460
- assayDetails: NCI tumour cell line growth inhibition, 48 h
Active and inactive are the calls of the source. Cut-off read from the data, not from the text of the source: active = GI50 up to about 1.1 µM and inactive = higher.
List of GI50 values.

{"columns": ["compound", "targetOrTestSystem", "GI50"],
 "data": [
  ["CN1CCc2c(sc3ncn(Nc4ccc(F)cc4)c(=N)c23)C1", "NCI-H460", "> 100 µM (inactive)"],
  ["CCN1CCN(c2nc3ccccc3c3c2CCOc2ccccc2-3)CC1", "NCI-H460", "27.2 µM (inactive)"]
]}

Kindly consider the entry below.
Incoming: Kindly state the measured GI50 obtained for Clc1cccc(Cl)c1C1SCc2nc3ncccc3n21 (stereo not drawn) with NCI-H460.
Outgoing: > 100 µM (inactive)

----------
- Test system: LOX IMVI
- assayDetails: NCI tumour cell line growth inhibition, 48 h
The source made the active and inactive calls. Cut-off read from the data, not from the text of the source: active = GI50 up to about 1.1 µM and inactive = higher.
measuredAttribute: GI50

{"columns": ["compound", "targetOrTestSystem", "GI50"],
 "data": [
  ["CCOC(=O)c1nc2ccc(C(F)(F)F)cc2nc1Oc1cc(OC)c(OC)c(OC)c1", "LOX IMVI", "> 100 µM (inactive)"],
  ["CCC1=C(CC2NCCc3cc(OC)c(OC)cc32)CC2c3ccccc3CCN2C1 (stereo not given)", "LOX IMVI", "13.5 µM (inactive)"]
]}

Incoming: Name the recorded GI50 for CN[C@H]1CC[C@]23C[C@]24CC[C@]2(C)[C@@H]([C@H](C)N(C)C)CC[C@@]2(C)[C@@H]4CC[C@H]3C1(C)C .
Outgoing: 5.32 µM (inactive)

Incoming: Another compound to look at: CC1OC(OC2C(O)C(O)C(O)C(O)C2O)C(N)CC1NC(=N)C(=O)O (stereo not given)
Outgoing: > 100 µM (inactive)

Incoming: Lookup CC(C)=CC[C@]12CCN(C)[C@H]1N(S(=O)(=O)c1ccccc1)c1ccccc12
Outgoing: > 37.1 µM (inactive)

Incoming: # iterate: COc1ccc2c(-c3ccc(OCCN(C)C)cc3)c(Oc3ccccc3)c(=O)oc2c1
Outgoing: 3.74 µM (inactive)

Incoming: # repeat for CCCCCCCCCCCCCCCC(=O)OCC1OC(n2ccc(N)nc2=O)C(O)C1O (stereo not given)
Outgoing: 4.7 µM (inactive)

----------
- Tested on: KM12
- assayDetails: NCI tumour cell line growth inhibition, 48 h
Active and inactive are the calls of the source. No stated cut-off is given here; in the data, active = GI50 up to about 1.1 µM and inactive = higher.
Below: a set of entries, each annotated with reported GI50.

Worked examples follow.
{"columns": ["compound", "GI50"],
 "data": [
  ["COC(=O)C(CCc1ccccc1I)C1=CCC2(CC1)OCCO2 (stereo not drawn)", "33.1 µM (inactive)"],
  ["O=C1CN2Cc3cc(N4CCOCC4)ccc3N=C2N1", "43.3 µM (inactive)"]
]}

// moving on: another record for GI50
Incoming: I would be grateful if you could share the reported GI50 for CCOC(=O)C(=O)Nc1nc2c(OCC)cccc2s1 .
Outgoing: > 100 µM (inactive)

----------
- Test system: SF-268
- assayDetails: NCI tumour cell line growth inhibition, 48 h
The source made the active and inactive calls. No stated cut-off is given here; in the data, active = GI50 up to about 1.1 µM and inactive = higher.
measuredAttribute: GI50

Past entries and their recorded results:
{"columns": ["compound", "targetOrTestSystem", "GI50"],
 "data": [
  ["CCOC(=O)/C(=C/c1ccc(OC)cc1)N(CC)CC", "SF-268", "> 100 µM (inactive)"],
  ["NC1(CCNC(=O)c2ccccc2)CCN(C(=O)c2ccccc2)CC1", "SF-268", "> 100 µM (inactive)"],
  ["c1ccc(-c2cccc(-c3ccccn3)n2)nc1 [TERPYRIDINE]", "SF-268", "0.495 µM (active)"]
]}

Incoming: If you can, please state the reported GI50 value of CC1(C)C2C=CC1C(=O)CC2 (stereo unspecified) .
Outgoing: > 100 µM (inactive)

Incoming: Then what about the compound CCCc1cc(=O)oc2c(C=O)c(O)cc(O)c12 ?
Outgoing: 26.6 µM (inactive)

Incoming: Try this compound too: CC(C)=CC[C@]12CCN(C)[C@H]1N(S(=O)(=O)c1ccccc1)c1ccccc12
Outgoing: > 44.6 µM (inactive)

Incoming: Now consider CCC(=O)OC1=C(c2ccccc2)Sc2ccc(Cl)cc2-n2cccc21 and answer again.
Outgoing: > 10 µM (inactive)

Incoming: Field entry: N#Cc1cnsc1
Outgoing: > 100 µM (inactive)

Incoming: Subsequent entry: CC(C)OC(=O)/C=C/C(=O)O/C=C/[N+](=O)[O-]
Outgoing: 24.5 µM (inactive)

Incoming: Repeat for the following compound: O=C1C(SCCO)=C(SCCO)C(=O)c2ccccc21
Outgoing: 1.56 µM (inactive)
